System: Plasmodium berghei
measurement.notes: Screen against P. berghei liver stage (PbLuc), transformed with Luciferase, at 10uM
Assay type: functional, HepG2
test.parameters: tested at 10 uM
The whole screen tested about 69,000 compounds, of which about 8,600 (12%) showed an effect of 50% or more. The list comes from a sample in which strong results are over-represented; it also holds close analogues and randomly drawn compounds.
measured.parameter: INHIBITION (%)
Kindly provide the numeric value in % only, without the unit symbol.

For Cc1cnn(CC2CCCN2C(=O)c2cc(Cl)ccc2F)c1 (stereo not drawn) , what is its reported INHIBITION?
22.9

Try "CCn1nc(C)c2nc(C(C)C)nc(N(C)Cc3ccco3)c21" next.
11.8

Try NC(=O)C1CN(c2ccc(Br)cn2)CCO1 (stereo not drawn) next.
69.7

Try "CS(=O)(=O)NCc1cnc2n1CCN(Cc1ccsc1)CC2" next.
30.1

Try Cc1ccccc1CSc1nc(N)cc(N2CCOC(C(N)=O)C2)n1 (stereo not drawn) next.
-19.2

Try CC(C)(C)C(=O)N1CCCC(c2ncncc2-c2ccncc2)C1 (stereo not drawn) next.
49.6

Try "CC1CCN(C(=O)[C@@H]2C[C@H]3OCC[C@H]3N(Cc3ccoc3)C2)CC1" next.
59

Try "CS(=O)(=O)CCCC(=O)Nc1cc(Cl)c(Cl)cn1" next.
15.7

Try Cc1nccn1CCCN1CCCC(c2nccn2CC2CCC2)C1 (stereo not drawn) next.
41.8

Try OC(COCc1ccco1)CN1CCc2c(ncn2C2CC2)C1 (stereo not drawn) next.
-58.7

Try "Cc1nc(CN2CC[C@@H]3[C@@H](CCC(=O)N3CCc3c[nH]cn3)C2)co1" next.
44.8

Try "CN1CCN(S(=O)(=O)c2cccc(F)c2)c2ccccc21" next.
46.6

Try "COc1cccc(COCC(=O)N2CCCN(CC(N)=O)CC2)c1" next.
-101

Try COc1ccccc1CC(=O)N1CCCC(c2cc(C)[nH]n2)C1 (stereo not drawn) next.
-24.2

Try "CN1CCN(S(=O)(=O)c2cccc(C#N)c2)c2ccc(F)cc21" next.
62.4

Try "CC(C)(C)NC(=O)CNc1ncc(Br)cn1" next.
28.8

Try O=C(c1ccc(N2CCCC2)nn1)N1CCCC(n2ccnc2)C1 (stereo not drawn) next.
29.2

Try "Cn1cnnc1C1CCN(C(=O)CCOc2ccc(Cl)cc2)CC1" next.
11.9

###

Test system: Plasmodium berghei
measurement.notes: Screen against P. berghei liver stage (PbLuc), transformed with Luciferase, at 10uM
Type: functional, HepG2
test.parameters: tested at 10 uM
Screen size: about 69,000 compounds; about 8,600 (12%) showed an effect of 50% or more. The entries come from a sample that favours strong results as a whole.
measured.parameter: INHIBITION
Quote the value and follow it with the unit of measurement.

For "CCCNc1c(NC(=O)NCCCOC)c(=O)oc2ccccc12" , what is its reported INHIBITION?
-13.6%

Try "CCCNc1c(NC(=O)NCCOC)c(=O)oc2ccccc12" next.
-24.7%

Try "Cc1ccc(N2CCC3(CC2)CC(OCC(C)C)C3)nn1" next.
31.2%

Try Cc1cnn(CC2CCCN2C(=O)c2ccc(F)cc2Cl)c1 (centres undefined) next.
-81.1%

Try "CC(C)CC(=O)Nc1cccc(CNCc2cccs2)c1" next.
52.1%

Try "COc1ccccc1CNc1ncnc2c1NC(=O)CN2" next.
-79.3%

Try COCCN1CC2(CCCN(C(=O)NCCc3cccs3)C2)CCC1=O (centres undefined) next.
56.5%

Try Cc1nnc(-c2cccc(C#N)c2)n1C1CCN(C2CC2)C1=O (centres undefined) next.
-25.7%

Try "CCNc1c(NC(=O)NCCOC)c(=O)oc2ccccc12" next.
69.9%

Try "O=C(Nc1cccc(CNCc2cccs2)c1)C1CCCC1" next.
36.9%

Try "Cc1nc(CN2CCC(C(=O)O)(n3ccc(C(C)C)n3)CC2)co1" next.
-35.2%

Try "Cc1ccc(C)c(S(=O)(=O)NC(=O)c2cccc3c2OCCO3)c1" next.
68.8%

Try "Cc1ccc(C(=O)NS(=O)(=O)c2cc(Br)ccc2C)c(=O)[nH]1" next.
25.6%

Try "O[C@@H]1CN(Cc2cccc(F)c2)CC[C@H]1NCc1ccccn1" next.
43.05%
